- tested system: SARS-CoV2 Mpro (Severe acute respiratory syndrome coronavirus 2 (2019-nCoV) (SARS-CoV-2), UniProt P0DTD1)
pIC50: −log10 of the molar value.
experimental readout: pIC50

compound | pIC50
COc1cccc2[nH]c(C(=O)N3CC4(CCC4)CC3C(=O)N[C@H](C#N)C[C@@H]3CCCNC3=O)cc12 (single isomer, unassigned) [719A (Isomer 1)] | 4.52 to 5.00
N#C[C@H](C[C@@H]1CCNC1=O)NC(=O)C1CC2(CCC2)CN1C(=O)c1cc2ccc(Cl)c(Cl)c2[nH]1 (single isomer, unassigned) [814 (Isomer 2)] | > 5.70
N#C[C@H](C[C@@H]1CCCNC1=O)NC(=O)C1CC2(CCC2)CN1C(=O)c1cc2c(Cl)cccc2[nH]1 (single isomer, unassigned) [803 (Isomer 3)] | > 5.70
COc1ccc(Cl)c2[nH]c(C(=O)N3CC4(CCC4)CC3C(=O)N[C@H](C#N)C[C@@H]3CCNC3=O)cc12 (single isomer, unassigned) [992 (Isomer 1)] | > 5.70
CC1(C)CC(C[C@@H](C#N)NC(=O)[C@H](CC2CC2)NC(=O)c2cc3cccc(Cl)c3[nH]2)C(=O)N1 (single isomer, unassigned) [1053 (Isomer 1)] | 5.00 to 5.70

q: Identify the reported pIC50 for the following entry. COc1cccc2[nH]c(C(=O)N[C@@H](CC3CC3)C(=O)N[C@H](C#N)Cc3ccccn3)cc12
a: 4.52 to 5.00
